Burkin Assay in Myoblasts, signal relative to DMSO by entry:
Test system: α7 integrin (LacZ reporter in α7βgal+/− myoblasts)
Experiment: Myoblast α7+/LacZ integrin FDG assay (Burkin assay in myoblasts, 96-well)
Type: cell-based, mouse
Conditions: 1 uM; α7+/LacZ myoblasts, 96-well
endpoint: Burkin Assay in Myoblasts, signal relative to DMSO

compound=CCOC(=O)c1cc(-c2cccs2)nc2c1c(C)nn2-c1ccccn1 value_measured=1.134
compound=CC(C)(C)c1csc(NC(=O)c2cccnc2)n1 value_measured=1.1813
compound=O=S(=O)(NC(=NC1CCCCC1)c1ccccc1F)c1ccccc1 value_measured=1.188
compound="C#CC1(O)CCC2C3CCC4=C/C(=N/OCC(=O)NCC(=O)NC(C(=O)O)C(C)C)CC[C@]4(C)C3CC[C@@]21C (some centres unmarked)" value_measured=1.09
compound=CCCCN(CCCC)CCNC(=O)c1cn(C)c2ccc(S(=O)(=O)N(C)C3CCCCC3)cc2c1=O value_measured=0.9155
compound=NS(=O)(=O)c1ccc(NC(=O)c2ccc(CNS(=O)(=O)c3cc(C(F)(F)F)ccc3Cl)cc2)cc1 value_measured=0.9273
compound="CCCN(C(=O)c1ccc(S(=O)(=O)N2CCCC2)cc1)C1CCS(=O)(=O)C1 (centres unmarked)" value_measured=0.8278
compound=CCc1ccc(S(=O)(=O)NCCOc2cccc3cccnc23)cc1 value_measured=0.9975

---

Tested on: β-galactosidase in CMV-LacZ C2C12 myoblasts
Assay: CMV-LacZ secondary screen in C2C12 myoblasts (β-Gal stabilizing assay)
Assay type: cell-based, mouse
Conditions: 0.5 uM; SU9516 analogs, C2C12 CMV-LacZ, N=2
endpoint: CMV-LACZ in Myoblasts, value relative to DMSO

molecule="O=C1Nc2ccccc2/C1=C/c1cnc(-c2ccccc2)[nH]1 [MLS000834756-01]" value_measured=0.8709
molecule="Cc1ccc2c(c1)/C(=C/c1ccc(F)cc1)C(=O)N2 [MLS001202366-01]" value_measured=0.7656
molecule="O=C1Nc2ccccc2/C1=C/c1ccc([N+](=O)[O-])cc1 [MLS001194544-01]" value_measured=0.8975
molecule="Cc1cc(C)c(/C=C2\\C(=O)Nc3ccccc32)[nH]1 [NCGC00094381-03]" value_measured=0.9504
molecule="COc1cc(OC)c(/C=C2/C(=O)Nc3ccccc32)c(OC)c1 [NCGC00015546-04]" value_measured=1.1442
molecule="COc1ccc(C(=O)/C=C2/C(=O)Nc3ccccc32)cc1 [MLS001163848-01]" value_measured=1.1146
molecule="COc1ccc2c(c1)C(=C(C#N)C#N)C(=O)N2CCc1ccccc1 [MLS000763074-01]" value_measured=0.8431
molecule="O=Nc1c(-c2c(O)[nH]c3ccccc23)[nH]c2ccccc12 [NCGC00015545-02]" value_measured=1.0179
molecule="CCO/C(C)=C1\\C(=O)Nc2ccccc21 [MLS000554109-01]" value_measured=1.1083

---

Burkin Assay in Myotubes, α7 integrin LacZ reporter signal relative to DMSO by entry:
System: α7 integrin (LacZ reporter in α7+/LacZ myotubes)
Assay: Myotube α7 integrin FDG assay (Burkin assay in myotubes, 96-well)
Format: cell-based, mouse
Conditions: myotubes, 20 uM
endpoint: Burkin Assay in Myotubes, α7 integrin LacZ reporter signal relative to DMSO

compound=COc1ccc(CCNC(=O)Cn2nnc(C(=O)Nc3ccc(Br)cc3)c2N)cc1OC value_measured=0.5217
compound=COc1ccc(NC(=O)c2cccc(N3C(=O)c4ccc(C(=O)Nc5ccc(OC)c(O)c5)cc4C3=O)c2)cc1O value_measured=0.8719
compound="CC1CCCCC12NC(=O)N(CC(=O)OCc1cccc(F)c1)C2=O (stereo not drawn)" value_measured=1.049
compound=COC(=O)c1ccccc1NC(=O)CSc1nc(O)c(-c2ccccc2)c(=O)[nH]1 value_measured=0.8327
compound=Cc1cccc2c(N=Nc3ccc(S(=O)(=O)Nc4ccc(Cl)cc4)cc3[N+](=O)[O-])c(O)[nH]c12 value_measured=0.7705
compound="CCC(C)n1[nH]c(=O)cc1N (stereo not drawn)" value_measured=0.8369
compound=O=C(O)c1csc(-c2cccs2)n1 value_measured=0.8634
compound=CCCOc1nc(SCCC)nc2c1cnn2-c1ccccc1 value_measured=1.007
compound=CCOc1ccccc1NC(=O)COC(=O)CNS(=O)(=O)c1ccc(C)cc1 value_measured=0.8607
compound="CC1CCN(C(CNS(=O)(=O)c2ccccc2)c2ccccc2)CC1 (stereo not drawn)" value_measured=0.8432
compound=COC(=O)c1cc(S(=O)(=O)NCC2CCN(Cc3ccc(Cl)cc3)CC2)cn1C value_measured=0.8938
compound=COc1ccc(S(=O)(=O)Nc2ccc(S(=O)(=O)Nc3nccs3)cc2)cc1 value_measured=0.9463
compound="O=CN1CCN(C(=O)CC(c2ccccc2)c2cc(Br)ccc2O)CC1 (stereo not drawn)" value_measured=0.9266
compound=CN(C)C1(CN=Cc2cc(Cl)cc([N+](=O)[O-])c2O)CCCCC1 value_measured=0.9298
compound=Cc1ccccc1-n1c(Cc2cccs2)n[nH]c1=S value_measured=0.8694
compound=COc1ccc(S(=O)(=O)N2CCCCCC2)cc1C(=O)N1CCN(c2ccccc2O)CC1 value_measured=1.0842
compound=COc1cccc(CN2CCN(Cc3ccco3)CC2)c1.O=C(O)C(=O)O value_measured=0.8283
compound=Cc1[nH]c2ccc(F)cc2c1CCN(Cc1ccco1)C(=S)NC(C)(C)C value_measured=0.457
